biological target: T1, HLA-A*0201 (purified HLA class I molecule) (human); assay: competition with 125I-labelled standard peptide for purified HLA, gel filtration
T1 construct: also called HLA-A2.1
Form field: relative binding ratio (IC50 of standard peptide / IC50 of test peptide) (one value per entry).
Give your result in ratio as a bare value.

A selection of reference data follows.
binder: QVVQGNLEL (Synthetic peptide; also called HER2/neu 54-62) [HER2/neu peptide, position 54, 9 amino acids]
reportedMeasurement: 0.0001

binder: QLMPYGCLL (Synthetic peptide; also called Her2/neu.799) [HER2/neu peptide, position 799, 9 amino acids]
reportedMeasurement: 0.023

binder: QLRSLTEIL (Synthetic peptide) [HER2/neu peptide, position 141, 9 amino acids]
reportedMeasurement: 0.0008

// sample PLQPEQLQV (Synthetic peptide) [HER2/neu peptide, position 391, 9 amino acids] , its relative binding ratio (IC50 of standard peptide / IC50 of test peptide) was 0.0002

// sample PLDSTFYRSL (Synthetic peptide; also called HER2/neu 999-1008) [HER2/neu peptide, position 999, 10 amino acids] , its relative binding ratio (IC50 of standard peptide / IC50 of test peptide) was 0.0001

// sample QIAKGMSYL (Synthetic peptide; also called HER2/neu 828-836) [HER2/neu peptide, position 828, 9 amino acids] , its relative binding ratio (IC50 of standard peptide / IC50 of test peptide) was 0.0006

// sample QLCYQDTIL (Synthetic peptide; also called HER2/neu 160-168) [HER2/neu peptide, position 160, 9 amino acids] , its relative binding ratio (IC50 of standard peptide / IC50 of test peptide) was 0.0001

// sample QVPLQRLRIV (Synthetic peptide) [HER2/neu peptide, position 93, 10 amino acids] , its relative binding ratio (IC50 of standard peptide / IC50 of test peptide) was 0.0001

// sample PLTSIISAV (Synthetic peptide) [HER2/neu peptide, position 650, 9 amino acids] , its relative binding ratio (IC50 of standard peptide / IC50 of test peptide) was 0.0015

// sample RACHPCSPM (Synthetic peptide) [HER2/neu peptide, position 190, 9 amino acids] , its relative binding ratio (IC50 of standard peptide / IC50 of test peptide) was 0.0001

// sample QMRILKETEL (Synthetic peptide; also called HER2/neu 711-720) [HER2/neu peptide, position 711, 10 amino acids] , its relative binding ratio (IC50 of standard peptide / IC50 of test peptide) was 0.0001

// sample PLTSIISAVV (Synthetic peptide) [HER2/neu peptide, position 650, 10 amino acids] , its relative binding ratio (IC50 of standard peptide / IC50 of test peptide) was 0.0003

// sample QLFRNPHQA (Synthetic peptide; also called HER2/neu 484-492) [HER2/neu peptide, position 484, 9 amino acids] , its relative binding ratio (IC50 of standard peptide / IC50 of test peptide) was 0.0062

// sample PINCTHSCV (Synthetic peptide; also called HER2/neu 627-635) [HER2/neu peptide, position 627, 9 amino acids] , its relative binding ratio (IC50 of standard peptide / IC50 of test peptide) was 0.0002

// sample QVRQVPLQRL (Synthetic peptide; also called HER2/neu 90-99) [HER2/neu peptide, position 90, 10 amino acids] , its relative binding ratio (IC50 of standard peptide / IC50 of test peptide) was 0.0001

// sample QVCTGTDMKL (Synthetic peptide; also called HER2/neu 24-33) [HER2/neu peptide, position 24, 10 amino acids] , its relative binding ratio (IC50 of standard peptide / IC50 of test peptide) was 0.0001

// sample PVTGASPGGL (Synthetic peptide) [HER2/neu peptide, position 128, 10 amino acids] , its relative binding ratio (IC50 of standard peptide / IC50 of test peptide) was 0.0001

// sample PLPSETDGYV (Synthetic peptide; also called HER2/neu 1119-1128) [HER2/neu peptide, position 1119, 10 amino acids] , its relative binding ratio (IC50 of standard peptide / IC50 of test peptide) was 0.0001

Data origin, for the record: patent US20040018971A1
